Sourced from the Deep4Chem optical property database

assay: solvent given as SMILES; details: in C1CCCCC1
Measured fluorescence lifetime values are reported for all entries that follow.
assay_endpoint: fluorescence lifetime (ns)

[[record]]
compound = "CC1=[N+]2C(=C(c3ccc(C(=O)c4ccccc4)cc3)c3ccc(C)n3[B-]2(F)F)C=C1c1cc2n(c1)[B-](F)(F)[N+]1=CC=CC1=C2c1c(C)cc(C)cc1C"
value_observed = 2.9

[[record]]
compound = "Cn1ccc(-c2nc3ccccc3nc2/C=C/N2CCCC2)c1"
value_observed = 1.87

[[record]]
compound = "c1ccc2cc(-n3cnc4ccccc43)ccc2c1"
value_observed = 4.7

[[record]]
compound = "CN(C)c1ccc(C#Cc2ccc(-c3nc(C#N)c(C#N)n3C)cc2)cc1"
value_observed = 1.2

[[record]]
compound = "C[Si](C)(C)C#Cc1cccc2ccccc12"
value_observed = 9

[[record]]
compound = "N#Cc1ccc(N)cc1"
value_observed = 5.6

[[record]]
compound = "c1cc2cccc3c4cccc5cccc(c(c1)c23)c54"
value_observed = 4.7

[[record]]
compound = "c1cc2c3c(c1)OCCCCCCCCOc1cccc(c1-c1c4ccccc4c-3c3ccccc13)OCCCCCCCCO2"
value_observed = 8.01

[[record]]
compound = "CCC1=C(C)C2=Cc3cc(I)c(I)n3[B-](F)(F)[N+]2=C1C"
value_observed = 1.04

[[record]]
compound = "c1ccc(-c2cc3cccc[n+]3[b-]3ccc(-c4cc[b-]5c(c4)c(-c4ccccc4)cc4cccc[n+]54)cc32)cc1"
value_observed = 4

[[record]]
compound = "C[Si](C)(C)c1cccc2ccccc12"
value_observed = 64

[[record]]
compound = "Cc1ccc2cc(C)ccc2c1"
value_observed = 64

[[record]]
compound = "C(=C\\c1nc2ccccc2s1)/c1ccccc1"
value_observed = 0.17

[[record]]
compound = "Cc1ccc(C)cc1"
value_observed = 47

[[record]]
compound = "O=C(O)c1ccccc1Nc1cccc(C(F)(F)F)c1"
value_observed = 2.93

[[record]]
compound = "COc1c2ccccc2c(OC)c2c1c1cc(F)ccc1n2C"
value_observed = 25

[[record]]
compound = "CN(C)c1ccc2nc(-c3ccc(C(=O)O)cc3)sc2c1"
value_observed = 2.4

[[record]]
compound = "CCC1=C(C)C2=Cc3cc(I)cn3[B-](F)(F)[N+]2=C1C"
value_observed = 0.489

[[record]]
compound = "CN1CCN(c2ccc3c4c(cccc24)C(=O)c2ccccc2-3)CC1"
value_observed = 8.9

[[record]]
compound = "Nc1ccccc1C(=O)O"
value_observed = 5.7

[[record]]
compound = "Cn1cc(-c2nc3ccccc3nc2/C=C/N2CCCC2)c2ccccc21"
value_observed = 1.27

[[record]]
compound = "ClC(Cl)=C1c2ccccc2C(C2(Cl)c3ccccc3C(=C(Cl)Cl)c3ccccc32)c2ccccc21 (stereo not drawn)"
value_observed = 10.4

[[record]]
compound = "CN(C)c1ccc(-c2c(/C=C3/C=Cc4ccccc4N3C)c(=O)c2=O)cc1"
value_observed = 1.54


====

Below is a list of entries, each paired with its recorded fluorescence lifetime value.
assay: solvent given as SMILES; conditions: in CCO
assay_endpoint: fluorescence lifetime (ns)

[[record]]
compound = "COC(=O)C(Cc1ccc2oc(-c3ccc(-n4c5ccccc5c5ccccc54)cc3)nc2c1)NC(=O)OC(C)(C)C (stereo not drawn)"
unit_symbol = "ns"
value_observed = 5.3

[[record]]
compound = "N#Cc1cnc(-c2c3ccccc3c(-c3ncc(C#N)cn3)c3ccccc23)nc1"
unit_symbol = "ns"
value_observed = 2.5

[[record]]
compound = "Nc1cccnc1"
unit_symbol = "ns"
value_observed = 6.5

[[record]]
compound = "CC1(C)C(/C=C/C2=C(c3ccc(C(=O)O)cc3)C(=C/C=C3/N(CCCCS(=O)(=O)[O-])c4ccc5ccccc5c4C3(C)C)/CCC2)=[N+](CCCCS(=O)(=O)[O-])c2ccc3ccccc3c21"
unit_symbol = "ns"
value_observed = 0.69

[[record]]
compound = "COCc1ncc(-c2c3ccccc3c(-c3cnc(COC)nc3)c3ccccc23)cn1"
unit_symbol = "ns"
value_observed = 6.1

[[record]]
compound = "COc1ccc2c(=O)c3c([nH]c2c1)-c1cc(Cl)ccc1NC3(C)C"
unit_symbol = "ns"
value_observed = 9.44

[[record]]
compound = "COc1ccc(C#Cc2ccc(C#Cc3ccc(P(=O)(c4ccc(C#Cc5ccc(C#Cc6ccc(OC)cc6)cc5)cc4)c4ccc(C#Cc5ccc(C#Cc6ccc(OC)cc6)cc5)cc4)cc3)cc2)cc1"
unit_symbol = "ns"
value_observed = 1.02

[[record]]
compound = "CCN(CC)c1ccc2c(c1)oc(=O)c1c(-c3ccccc3C(=O)O)c3ccc(=[N+](CC)CC)cc-3oc12"
unit_symbol = "ns"
value_observed = 2.29

